Assay: AUC (0 to infinity) in Sprague-Dawley rat at 2 mg/kg, iv by HPLC-MS analysis
Assay type: ADME, organism-based
Parameters: dose 2 mg/kg, route intravenous, time infinity
Details: in vivo
# Lookup of reported AUC(0-inf) keyed by entry
Write the numeric value and follow it with the unit.

{"Structure Smiles String": "O=C1NC(=O)/C(=C/c2ccc(-c3ccc(-n4c(-c5cccs5)cc(/C=C5\\SC(=O)NC5=O)c4-c4cccs4)cc3)cc2)S1", "AUC(0-inf)": "43.6 µg·h/mL"}

Q) Which AUC(0-inf) is reported for this compound? O=C(Cc1ccccc1)Nc1nnc(CCSCCc2nnc(NC(=O)Cc3ccccc3)s2)s1
A) 0.636 µg·h/mL

Data provenance is ChEMBL document CHEMBL4011632.
